Reference for the values: paper PMC5261807

experimental-target: T1, Bdf1 bromodomain 2 (GST-tagged, WT) (Saccharomyces cerevisiae (strain ATCC …, UniProt P35817))
T1 chain: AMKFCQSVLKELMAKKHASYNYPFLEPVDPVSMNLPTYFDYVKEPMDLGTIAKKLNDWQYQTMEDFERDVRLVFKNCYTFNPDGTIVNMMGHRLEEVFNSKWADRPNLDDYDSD
experiment-notes: histone peptide array probed with recombinant GST-bromodomain, signal normalised to myc peptide control
Non-standard residues stand in square brackets, D forms with d. Primed or numbered codes have the meaning given here. No end group written: not given here. Me2a″ = asymmetric dimethylarginine (Rme2a); Arg(Me2a) = CN(C)C(=N)NCCC[C@H](N)C(=O)O; Arg(Me2s) = CN=C(NC)NCCC[C@H](N)C(=O)O; Me2a = asymmetric dimethyl (on Arg); Lys(Me2) = CN(C)CCCC[C@H](N)C(=O)O; pS = N[C@@H](COP(=O)(O)O)C(=O)O; Lys(Me) = CNCCCC[C@H](N)C(=O)O; Me3″ = trimethyl lysine (Kme3); Me2 = dimethyl (on Lys)
quantity-measured: binding score

Example entries begin here.
>>> df
                                     binder  test_result
0          PRKQLATKAAR(Me2a″)K(Me3″)SAPATGG      0.00167
1         PRKQLATKAA[Arg(Me2a)]K(Ac)SAPATGG       0.0393
2  PRKQLATKAA[Arg(Me2a)][Lys(Me)][pS]APATGG            0
3  ARTKQTARKSTGGKAPRKQ (A Rme2a T Kme2 Q T A Rme2s Kme1 S T G G K A P R K Q)            0
4        ARTK(Ac)QTAR(Me2a)K(Me2)STGGKAPRKQ      0.00915

Query: So what does the record say about binding score for ARTKQTARKSTGGKAPRKQ (A Rme2s T Kme2 Q T A Rme2s K S T G G K A P R K Q) ?
Result: 0.00226

Query: For the binder shown here, ARTKQTARKSTGGKAPRKQ (A Rme2a T Kme3 Q T A Rme2a K S T G G K A P R K Q) , give the reported binding score.
Result: 0.00541

Query: Would you mind telling me what binding score value was observed for `ARTKQTA[Arg(Me2s)][Lys(Me2)][pS]TGGKAPRKQ` ?
Result: 0.00541
